Below: compounds with pKi recorded for Melanocyte-stimulating hormone receptor (Homo sapiens) in separate published works.
pKi: −log10 of the molar value.
parameter measured: pKi

{"columns": ["compound", "system under test", "pKi"],
 "data": [
  ["O=C(N[C@H](Cc1ccc(Cl)cc1)C(=O)N1CCN(C2(Cn3cncn3)CCCC2)CC1)C1Cc2ccccc2CN1 (stereo not given in full)", "Melanocyte-stimulating hormone receptor (Homo sapiens)", 6.28]
]}

P = NC(N)=NCCC[C@H](N)C(=O)N(Cc1ccc2ccccc2c1)Cc1cccc2ccccc12
Q = CC(=O)N[C@@H](Cc1c[nH]cn1)C(=O)N[C@H](Cc1ccccc1)C(=O)N1C[C@@H](OCc2ccc3ccccc3c2)C[C@@H]1CCCN=C(N)N
R = CNC(=O)[C@H](Cc1ccc2ccccc2c1)N1CCN(C(=O)[C@@H](Cc2ccc(F)cc2)NC(C)=O)[C@@H](CCCN=C(N)N)C1=O
[Q] Arrange the 3 compounds from largest to smallest pKi. Reply: labels, ordered per the request.
[A] Q, R, P
